Hi there, I'd appreciate the recorded inhibition for every entry that follows.
# STUDY_SYSTEM: Sodium-dependent dopamine transporter (Homo sapiens) (UniProt Q01959)
# Sequence (Q01959 whole entry): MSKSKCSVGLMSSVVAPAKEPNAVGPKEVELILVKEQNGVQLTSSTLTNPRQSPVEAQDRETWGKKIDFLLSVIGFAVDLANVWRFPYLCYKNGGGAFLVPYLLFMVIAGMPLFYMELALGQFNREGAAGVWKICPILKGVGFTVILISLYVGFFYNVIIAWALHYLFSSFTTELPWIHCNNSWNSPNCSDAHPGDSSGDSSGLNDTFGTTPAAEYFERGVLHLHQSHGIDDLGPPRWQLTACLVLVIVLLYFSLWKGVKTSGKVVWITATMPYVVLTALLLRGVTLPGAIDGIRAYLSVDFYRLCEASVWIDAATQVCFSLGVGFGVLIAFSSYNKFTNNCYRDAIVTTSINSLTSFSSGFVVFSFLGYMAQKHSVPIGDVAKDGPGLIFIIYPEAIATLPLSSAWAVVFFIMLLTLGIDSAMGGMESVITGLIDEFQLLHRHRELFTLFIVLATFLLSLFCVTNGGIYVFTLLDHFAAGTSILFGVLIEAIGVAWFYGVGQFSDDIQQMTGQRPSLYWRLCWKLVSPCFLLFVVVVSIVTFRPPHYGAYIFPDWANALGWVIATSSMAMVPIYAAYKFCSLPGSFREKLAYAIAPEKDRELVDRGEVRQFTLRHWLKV
# CONDITION_PARAMETERS: Compound concentration 10 µM
# Description: PDSP Primary Binding target: SLC6A3 - Compounds are tested at 10 uM concentration, plate are incubated at room temperature in the dark for 90 minutes. Reaction are stopped by vacuum filtration onto 0.3% polyethyleneimine soaked filter mats using Filtermate harvester. Scintilation cocktail is then melted onto microwave-dried filters on a hot plate and the radio activity is counted in Microbia counter.
One number for each entry, in %.

Worked examples, 2 compounds total:
[
  {
    "ITEM_SMILES": "NCCc1cn(S(=O)(=O)c2c(Cl)nc3sccn23)c2ccccc12",
    "VALUE_TYPE": "inhibition",
    "OBSERVED": 67.9
  },
  {
    "ITEM_SMILES": "COc1ccccc1N1CCN(CCCCNC(=O)c2ccc3ccccc3c2)CC1",
    "VALUE_TYPE": "inhibition",
    "OBSERVED": 73.9
  }
]

Your task in this section: give inhibition for each listed record.
1. O=c1ccc2ccc(OCCCCN3CCN(c4cccc5sccc45)CC3)cc2[nH]1
2. CN1CC(=O)N=C1NC(=O)Nc1cccc(Cl)c1
3. CCOC(=O)c1cc(C#N)c(N2CCC(C(=O)NS(=O)(=O)Cc3ccccc3)CC2)nc1C

Result block:
88.2
0.92
32.9

* * *

# STUDY_SYSTEM: Sigma intracellular receptor 2 (Homo sapiens)
# CONDITION_PARAMETERS: Compound concentration 10 µM
# Description: PDSP Primary Binding target: TMEM97 - Compounds are tested at 10 uM concentration, plate are incubated at room temperature in the dark for 90 minutes. Reaction are stopped by vacuum filtration onto 0.3% polyethyleneimine soaked filter mats using Filtermate harvester. Scintilation cocktail is then melted onto microwave-dried filters on a hot plate and the radio activity is counted in Microbia counter.
VALUE_TYPE: inhibition (%)
Answers are plain numbers, in %.

Your task in this section: give inhibition for each listed record.
1. O=C(c1cc2c(cc1F)OC(c1ccc(F)cc1)(c1ccc(Cl)cc1Cl)O2)N1CCOCC1 (stereo not given)
2. COc1cccc([C@@H](C)NCCCc2ccccc2Cl)c1
3. NCCc1cn(S(=O)(=O)c2c(Cl)nc3sccn23)c2ccccc12
4. CN1C[C@H](C(=O)N[C@]2(C)O[C@@]3(O)[C@@H]4CCCN4C(=O)[C@H](Cc4ccccc4)N3C2=O)C[C@@H]2c3cccc4[nH]cc(c34)C[C@H]21
5. O=C1O[C@]2(CC[C@H](C(=O)Nc3ccn(-c4ccccc4F)n3)CC2)c2cnccc21
6. CC[C@@H]1CN2C(=O)N(C)c3nc(-c4ccccc4)[nH]c3C2=N1
7. CC1(C)SSC(C)(C)[C@@H](NC(=O)[C@@H](N)Cc2ccc(O)cc2)C(=O)NCC(=O)N[C@@H](Cc2ccccc2)C(=O)N[C@H]1C(=O)O

Result block:
[72.4, 96.3, 82.9, 93.6, -5.33, 4.68, 22.6]

* * *

# STUDY_SYSTEM: Kappa-type opioid receptor (Homo sapiens) (UniProt P41145)
# Sequence (P41145 whole entry): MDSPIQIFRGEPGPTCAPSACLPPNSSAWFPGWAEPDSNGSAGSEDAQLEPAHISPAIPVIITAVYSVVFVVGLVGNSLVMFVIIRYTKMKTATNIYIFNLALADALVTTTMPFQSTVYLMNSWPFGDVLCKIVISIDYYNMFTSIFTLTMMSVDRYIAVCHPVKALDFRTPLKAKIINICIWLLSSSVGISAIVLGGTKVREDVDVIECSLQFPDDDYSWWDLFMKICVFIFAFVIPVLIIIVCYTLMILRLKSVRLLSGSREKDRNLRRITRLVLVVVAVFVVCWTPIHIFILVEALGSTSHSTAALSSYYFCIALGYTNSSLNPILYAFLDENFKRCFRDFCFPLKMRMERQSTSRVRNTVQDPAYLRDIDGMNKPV
# CONDITION_PARAMETERS: Compound concentration 10 µM; call rule not given here
Pick one and only one: true (1) for active, false (0) for inactive

[
  {
    "MOLECULE": "O=C(O)CC/C=C\\C[C@@H]1CO[C@H](c2ccccc2Cl)O[C@@H]1c1ccccc1O",
    "ASSIGNED_LABEL": "false (0)"
  },
  {
    "MOLECULE": "CCOC(=O)c1c(C)[nH]c2ccc3c(c12)CN1CCc2cc(OC)ccc2C1O3 (stereo not given)",
    "ASSIGNED_LABEL": "true (1)"
  },
  {
    "MOLECULE": "Cc1cc(C(=O)N2Cc3cnn(C)c3Nc3ccccc32)ccc1CNC(=O)N1CCC[C@H]1C(=S)N1CCCN(C)CC1",
    "ASSIGNED_LABEL": "true (1)"
  },
  {
    "MOLECULE": "Clc1ccc(CCCOCCCN2CCCCC2)cc1",
    "ASSIGNED_LABEL": "false (0)"
  },
  {
    "MOLECULE": "CN1C2CCC1CC(OC(c1ccc(F)cc1)c1ccc(F)cc1)C2 (stereo not given)",
    "ASSIGNED_LABEL": "true (1)"
  },
  {
    "MOLECULE": "Cc1cc(NC(=O)NCCN2CCC(O)(Cc3ccccc3)CC2)c2ccccc2n1",
    "ASSIGNED_LABEL": "false (0)"
  },
  {
    "MOLECULE": "Nc1nc(NCCc2ccc(O)cc2)nc2nc(-c3ccco3)nn12",
    "ASSIGNED_LABEL": "false (0)"
  },
  {
    "MOLECULE": "CN1CC(=O)N=C1NC(=O)Nc1cccc(Cl)c1",
    "ASSIGNED_LABEL": "false (0)"
  }
]

Query block: Hi, do you know how "Cc1nc(-c2ccc(C(F)(F)F)cc2)sc1COc1ccc([C@H](CC(=O)O)c2ccon2)cc1" came out in this test?
Result block: false (0)

Query block: Hi, do you know how "CCCCCNC(=O)NS(=O)(=O)c1cc([N+](=O)[O-])ccc1NC1CCCCC1" came out in this test?
Result block: false (0)

* * *

# STUDY_SYSTEM: UniProt:P35367
# Sequence (P35367 whole entry): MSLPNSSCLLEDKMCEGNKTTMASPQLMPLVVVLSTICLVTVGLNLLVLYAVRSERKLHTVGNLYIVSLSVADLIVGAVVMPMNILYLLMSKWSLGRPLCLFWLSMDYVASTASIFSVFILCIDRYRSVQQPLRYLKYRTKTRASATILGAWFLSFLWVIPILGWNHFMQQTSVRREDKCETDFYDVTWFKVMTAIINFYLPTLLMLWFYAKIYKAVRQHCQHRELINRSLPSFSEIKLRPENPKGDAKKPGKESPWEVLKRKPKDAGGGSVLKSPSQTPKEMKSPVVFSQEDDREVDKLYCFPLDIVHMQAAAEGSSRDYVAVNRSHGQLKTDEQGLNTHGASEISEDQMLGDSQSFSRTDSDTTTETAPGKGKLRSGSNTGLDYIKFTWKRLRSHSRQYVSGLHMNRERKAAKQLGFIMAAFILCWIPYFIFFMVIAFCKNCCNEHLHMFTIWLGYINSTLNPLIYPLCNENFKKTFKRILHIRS
# CONDITION_PARAMETERS: Compound concentration 10 µM
# Description: PDSP Primary Binding target: HRH1 - Compounds are tested at 10 uM concentration, plate are incubated at room temperature in the dark for 90 minutes. Reaction are stopped by vacuum filtration onto 0.3% polyethyleneimine soaked filter mats using Filtermate harvester. Scintilation cocktail is then melted onto microwave-dried filters on a hot plate and the radio activity is counted in Microbia counter.
VALUE_TYPE: inhibition (%)
Give bare numbers, in %.

Your task in this section: give inhibition for each listed record.
1. CN1CCC(C(=O)c2cccc(NC(=O)c3c(F)cc(F)cc3F)n2)CC1
2. COc1cccc(-c2c(C)n(Cc3c(F)cccc3C(F)(F)F)c(=O)n(C[C@H](NCCCC(=O)O)c3ccccc3)c2=O)c1F
3. C[C@@H](N)Cc1c[nH]cn1
4. S=C(NCCCc1c[nH]cn1)NCCCN(Cc1ccc(Cl)c(Cl)c1)c1ccc(Br)cn1
5. N#Cc1ccc(NC(=O)Nc2ccccc2Br)c2nn[nH]c12
6. Cc1ccc(O)c([C@H](CCN(C(C)C)C(C)C)c2ccccc2)c1
7. CCCn1c(=O)c2nc(C34CC5CC(CC3C5)C4)[nH]c2n(CCC)c1=O

Result block:
[16.4, 9.07, 8.33, 83, 0.77, 83.1, 8.71]

Your task in this section: give inhibition for each listed record.
1. CC(C)NCC(O)COc1ccc(CCOCC2CC2)cc1 (stereo unspecified)
2. COc1ccc(/C=C/CCCCOc2ccc(C(=O)c3cccc(C(=O)O)c3)cc2CCC(=O)O)cc1
3. COc1ccc(NS(=O)(=O)c2sc3ccc(Cl)cc3c2C)cc1N1CCNCC1
4. Clc1cccc(COc2cncc(N3CCNCC3)n2)c1
5. CO[C@@H]1COCC[C@@H]1N[C@@H]1CC[C@@](C(=O)N2CCc3ncc(C(F)(F)F)cc3C2)(C(C)C)C1
6. C[C@H](NC[C@H](O)CP(=O)(O)CC1CCCCC1)c1ccc(Cl)c(Cl)c1
7. FC(F)(F)c1cccc(-c2noc(-c3cc(-c4ccccc4)c(C(F)(F)F)s3)n2)c1

Result block:
1: 1.05; 2: 18.1; 3: 15.6; 4: 55.6; 5: 25.1; 6: 9.98; 7: 17

* * *

Hi there, I'd appreciate the recorded inhibition for every entry that follows.
# STUDY_SYSTEM: D(2) dopamine receptor (Homo sapiens) (UniProt P14416)
# Sequence (P14416 whole entry): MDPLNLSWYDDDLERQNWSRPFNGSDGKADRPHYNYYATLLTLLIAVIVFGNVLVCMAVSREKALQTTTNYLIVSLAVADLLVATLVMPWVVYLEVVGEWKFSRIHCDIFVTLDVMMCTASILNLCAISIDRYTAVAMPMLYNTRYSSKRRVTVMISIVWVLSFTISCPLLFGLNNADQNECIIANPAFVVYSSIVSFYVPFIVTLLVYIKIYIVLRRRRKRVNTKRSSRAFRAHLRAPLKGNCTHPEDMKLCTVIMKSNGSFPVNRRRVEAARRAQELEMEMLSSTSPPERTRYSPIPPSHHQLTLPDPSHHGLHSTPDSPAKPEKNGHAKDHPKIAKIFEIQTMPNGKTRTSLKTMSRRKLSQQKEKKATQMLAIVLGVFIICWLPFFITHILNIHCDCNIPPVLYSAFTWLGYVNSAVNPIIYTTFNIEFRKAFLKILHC
# CONDITION_PARAMETERS: Compound concentration 10 µM
# Description: PDSP Primary Binding target: DRD2 - Compounds are tested at 10 uM concentration, plate are incubated at room temperature in the dark for 90 minutes. Reaction are stopped by vacuum filtration onto 0.3% polyethyleneimine soaked filter mats using Filtermate harvester. Scintilation cocktail is then melted onto microwave-dried filters on a hot plate and the radio activity is counted in Microbia counter.
Answers are plain numbers, in %.

[
  {
    "COMPOUND": "Cc1ccc2c(c1)c1c(n2CCc2ccc(C)nc2)CCN(C)C1",
    "inhibition, %": 57.8
  },
  {
    "COMPOUND": "CN1CCC(C(=O)c2cccc(NC(=O)c3c(F)cc(F)cc3F)n2)CC1",
    "inhibition, %": 26.2
  },
  {
    "COMPOUND": "COC1CCN(c2cccc(-c3cc(NC(C)=O)nc(-n4nc(C)cc4C)n3)n2)CC1",
    "inhibition, %": 12.8
  },
  {
    "COMPOUND": "CC1=C2C[C@H]3[C@@H](CC=C4C[C@@H](O)CC[C@@]43C)[C@@H]2CC[C@]12O[C@@H]1C[C@H](C)CN[C@H]1[C@H]2C",
    "inhibition, %": 13.2
  },
  {
    "COMPOUND": "CC(C)C[C@H](NC(=O)N1CCCCCC1)C(=O)N[C@H](Cc1cn(C)c2ccccc12)C(=O)N[C@H](Cc1ccccn1)C(=O)O",
    "inhibition, %": 2.53
  }
]

Your task in this section: give inhibition for each listed record.
1. Cc1cc(NC(=O)Nc2ccc(N(C)C)cc2)c2cc(F)cc(F)c2n1
2. CCCSc1nc(N[C@@H]2C[C@H]2c2ccc(F)c(F)c2)c2nnn([C@@H]3C[C@H](OCCO)[C@@H](O)[C@H]3O)c2n1
3. CN1CCCC(n2nc(Cc3ccc(Cl)cc3)c3ccccc3c2=O)CC1 (centres undefined)
4. CC1CCN(CC[C@H]2CCCN2S(=O)(=O)c2cccc(O)c2)CC1

Result block:
[52.2, 29, 79.1, 33.5]

* * *

# STUDY_SYSTEM: D(1B) dopamine receptor (Homo sapiens) (UniProt P21918)
# Sequence (P21918 whole entry): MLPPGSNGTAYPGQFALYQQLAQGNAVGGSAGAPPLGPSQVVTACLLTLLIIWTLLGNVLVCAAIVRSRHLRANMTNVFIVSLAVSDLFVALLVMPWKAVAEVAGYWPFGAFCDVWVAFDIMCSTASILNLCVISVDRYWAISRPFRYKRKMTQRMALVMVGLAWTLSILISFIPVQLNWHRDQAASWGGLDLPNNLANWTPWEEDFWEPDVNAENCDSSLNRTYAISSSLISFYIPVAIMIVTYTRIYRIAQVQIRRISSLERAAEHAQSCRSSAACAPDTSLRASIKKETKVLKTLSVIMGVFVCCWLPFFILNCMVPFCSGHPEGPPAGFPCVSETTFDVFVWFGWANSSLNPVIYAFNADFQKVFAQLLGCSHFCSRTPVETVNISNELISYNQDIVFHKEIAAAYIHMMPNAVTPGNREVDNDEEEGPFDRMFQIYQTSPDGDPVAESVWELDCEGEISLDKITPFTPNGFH
# CONDITION_PARAMETERS: Compound concentration 10 µM
# Description: PDSP Primary Binding target: DRD5 - Compounds are tested at 10 uM concentration, plate are incubated at room temperature in the dark for 90 minutes. Reaction are stopped by vacuum filtration onto 0.3% polyethyleneimine soaked filter mats using Filtermate harvester. Scintilation cocktail is then melted onto microwave-dried filters on a hot plate and the radio activity is counted in Microbia counter.
Hi there, I'd appreciate the recorded inhibition for every entry that follows.
Give bare numbers, in %.

[
  {
    "ITEM_SMILES": "COc1ccc(CNC(=O)c2cc(-c3cncc(Cl)c3)cnc2-c2ccccn2)nc1OC",
    "inhibition (%)": 1.18
  }
]

Your task in this section: give inhibition for each listed record.
1. Cc1cc(NC(=O)NCCN2CCC(O)(Cc3ccccc3)CC2)c2ccccc2n1
2. COc1cccc([C@H](O)C2CCN(CCc3ccc(F)cc3)CC2)c1OC
3. Cc1cn2cc(CC(=O)N3CCC4(CC3)CN(Cc3ccc(-n5nccn5)cc3Cl)C4)nc2s1
4. COc1ccc(NS(=O)(=O)c2sc3ccc(Cl)cc3c2C)cc1N1CCNCC1
5. CCCCCNC(=N)N/N=C/c1c[nH]c2ccc(OC)cc12

Result block:
1. 41.9
2. 4.09
3. -4.31
4. 22.4
5. 54.4
